- measurementDescription: ATG_CMV_CIS: Attagene CIS-FACTORIAL HepG2 Assay for human CMV (Internal Marker) (AID 2282928);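 note: endpoint acts as a background internal control marker rather than a target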
- conditionDescription: HepG2 CMV promoter reporter, transcription factor profiling; actives raise or lower the signal
Active and inactive are the calls of the source. Rule for the calls: active = hit-call score of the fitted dose curve at least 0.9, where 1 is the maximum; inactive = score below 0.9.
Classes used: t (active), f (inactive)

| compound | groupLabel |
| --- | --- |
| CSC(=O)c1c(C(F)F)nc(C(F)(F)F)c(C(=O)SC)c1CC(C)C | f |
| COP(=S)(OC)Oc1ccc([N+](=O)[O-])c(C)c1 | f |
| N#CN=C1SCCN1Cc1ccc(Cl)nc1 | f |
| CC(C)N1C(=O)N(c2ccccc2)CSC1=NC(C)(C)C | f |
| O=C(O)c1c(Cl)ccc2cc(Cl)cnc12 | f |
| Nc1cnn(-c2ccccc2)c(=O)c1Cl | f |
| CCCN(CC)CC1COC2(CCC(C(C)(C)C)CC2)O1 (configuration not stated) | t |
| Nc1c(Cl)c(F)nc(OCC(=O)O)c1Cl | f |
| CC1(C)C(C(=O)OC(C#N)c2cccc(Oc3ccccc3)c2)C1(C)C (configuration not stated) | f |
| COC(=O)N(C(=O)N1CO[C@@]2(C(=O)OC)Cc3cc(Cl)ccc3C2=N1)c1ccc(OC(F)(F)F)cc1 | f |
| N#Cc1c[nH]cc1-c1cccc2c1OC(F)(F)O2 | t |
| COc1cc(Cl)c(OC)cc1Cl | f |

Source: PubChem BioAssay (EPA / NIEHS)
